Assay: Cytotoxicity against african green monkey Vero cells assessed as reduction in cell viability after 24 hrs by MTT assay
Format: cell-based
Details: chlorocebus sabaeus, Vero cells; read-out: TD50
testReadout: CC50 at 24 h (µg/mL)
Reply with just the number (in µg/mL).

1. CCCCCCCCCOc1ccc(F)c(C(N)=O)c1F    90
2. NC(=O)c1c(F)ccc(OCC2COc3cc(Cl)ccc3O2)c1F (racemic)    550
3. NC(=O)c1c(F)ccc(OCC2COc3ccc(Cl)cc3O2)c1F (racemic)    450

Q: Query CC50 at 24 h for CCCCCCCCCOc1ccc(F)c(C(=O)NCCN)c1F
Result: 60

---

Test: Therapeutic index, ratio of TD90 for human MRC5 cells to MBC for Staphylococcus aureus
Format: cell-based
Details: read-out: TI
testReadout: selectivity ratio

Here are 3 compounds together with their reported answers.
1) NC(=O)c1c(F)ccc(OCC2COc3cc(Cl)ccc3O2)c1F (racemic)    320
2) NC(=O)c1c(F)ccc(OC[C@H]2COc3ccc(Cl)cc3O2)c1F    > 320
3) NC(=O)c1c(F)ccc(OC[C@@H]2COc3ccc(Cl)cc3O2)c1F    > 1600

Q: Query selectivity ratio for NC(=O)c1c(F)ccc(OCC2COc3ccc(Cl)cc3O2)c1F (racemic)
Result: > 1600

Q: Query selectivity ratio for CCCCCCCCCOc1ccc(F)c(C(N)=O)c1F
Result: > 800

---

Test: Cytotoxicity against human MRC5 cells assessed as reduction in cell viability after 24 hrs by MTT assay
Format: cell-based
Conditions: MRC5 cells, read-out: TD50
Label YES when CC50 at 24 h is strictly below 500 µg/mL; otherwise label NO.

Q: Lab note: confirm whether the reported CC50 at 24 h for this compound is below 500 µg/mL, equality not counting. compound: CCCCCCCCCOc1ccc(F)c(C(N)=O)c1F
Result: YES

Q: Lab note: confirm whether the reported CC50 at 24 h for this compound is below 500 µg/mL, equality not counting. compound: NC(=O)c1c(F)ccc(OCC2COc3cc(Cl)ccc3O2)c1F (racemic)
Result: NO

Q: Lab note: confirm whether the reported CC50 at 24 h for this compound is below 500 µg/mL, equality not counting. compound: CCCCCCCCCOc1ccc(F)c(C(=O)NCCN)c1F
Result: YES

Q: Lab note: confirm whether the reported CC50 at 24 h for this compound is below 500 µg/mL, equality not counting. compound: NC(=O)c1c(F)ccc(OC[C@H]2COc3ccc(Cl)cc3O2)c1F
Result: YES

Q: Lab note: confirm whether the reported CC50 at 24 h for this compound is below 500 µg/mL, equality not counting. compound: NC(=O)c1c(F)ccc(OC[C@@H]2COc3ccc(Cl)cc3O2)c1F
Result: NO

---

System: Vero
Test: Cytotoxicity against african green monkey Vero cells assessed as reduction in cell viability after 24 hrs by MTT assay
Type: cell-based
Details: chlorocebus sabaeus, vero, 24 h
The following molecules are listed with their measured TD90 values.

Here are 5 molecules together with their reported answers.
1. NC(=O)c1c(F)ccc(OC[C@@H]2COc3ccc(Cl)cc3O2)c1F    > 200 µg/mL
2. NC(=O)c1c(F)ccc(OCC2COc3ccc(Cl)cc3O2)c1F (racemic)    > 800 µg/mL
3. CCCCCCCCCOc1ccc(F)c(C(N)=O)c1F    > 200 µg/mL
4. CCCCCCCCCOc1ccc(F)c(C(=O)NCCN)c1F    120 µg/mL
5. NC(=O)c1c(F)ccc(OC[C@H]2COc3ccc(Cl)cc3O2)c1F    > 200 µg/mL

// below: TD90 requested for another molecule
Q: Query TD90 for NC(=O)c1c(F)ccc(OCC2COc3cc(Cl)ccc3O2)c1F (racemic)
Result: 800 µg/mL

---

The following compounds are listed with their measured TD90 values.
Tested on: MRC5
Assay: Cytotoxicity against human MRC5 cells assessed as reduction in cell viability after 24 hrs by MTT assay
Format: cell-based
Settings: mrc5, 24 h

Here are 5 compounds together with their reported answers.
1) NC(=O)c1c(F)ccc(OC[C@H]2COc3ccc(Cl)cc3O2)c1F    > 800 µg/mL
2) CCCCCCCCCOc1ccc(F)c(C(N)=O)c1F    > 200 µg/mL
3) NC(=O)c1c(F)ccc(OCC2COc3cc(Cl)ccc3O2)c1F (racemic)    800 µg/mL
4) NC(=O)c1c(F)ccc(OC[C@@H]2COc3ccc(Cl)cc3O2)c1F    > 800 µg/mL
5) CCCCCCCCCOc1ccc(F)c(C(=O)NCCN)c1F    80 µg/mL

// below: TD90 requested for another compound
Q: Query TD90 for NC(=O)c1c(F)ccc(OCC2COc3ccc(Cl)cc3O2)c1F (racemic)
Result: > 800 µg/mL
